- Test system: HCI-010 (organoid from a breast cancer xenograft)
- Procedure details: CTG-3D luminescence at 96 h relative to day-0 seeding control (ratio to day 0); higher = more growth / less cytotoxicity; PDxO 3D drug screen, 96 h, CTG-3D normalised to day-0 seeding control.
- Test conditions: 100 µM; days in culture: 103
Observable: CTG-3D luminescence at 96 h
// print number alone

Please review the following examples before continuing.
Task: CTG-3D luminescence at 96 h for NC1(C(=O)N[C@@H](CCO)c2ccc(Cl)cc2)CCN(c2nc[nH]c3nccc2-3)CC1 [capivasertib] ?
Output: 0.959

Task: Same for C/C=C1\NC(=O)[C@H]2CSSCC/C=C/[C@H](CC(=O)N[C@H](C(C)C)C(=O)N2)OC(=O)[C@H](C(C)C)NC1=O [romidepsin]
Output: -0.00621

Task: Same for `CC(C)(C(=O)NCC(F)(F)C(F)(F)F)C(=O)N[C@@H]1C(=O)Nc2ccccc2-c2ccccc21`
Output: 2.02

---
Task: CTG-3D luminescence at 96 h for Cc1cc(Nc2ncc(Cl)c(Nc3ccccc3S(=O)(=O)C(C)C)n2)c(OC(C)C)cc1C1CCNCC1 [ceritinib] ?
Output: -0.0118

---

- System: HCI-016 (organoid from a triple-negative breast cancer xenograft)
- Procedure details: CTG-3D luminescence at 96 h relative to day-0 seeding control (ratio to day 0); higher = more growth / less cytotoxicity; PDxO 3D drug screen, 96 h, CTG-3D normalised to day-0 seeding control.
- Test conditions: 0.1 µM; days in culture: 190
Rule: CTG-3D luminescence at 96 h of 1 or more gives satisfied; anything lower gives not satisfied.

As a guide, the following entries are already answered.
Task: Reported CTG-3D luminescence at 96 h at or above 1? `C=CC(=O)N1CCC[C@@H](n2nc(-c3ccc(Oc4ccccc4)cc3)c3c(N)ncnc32)C1`
Output: satisfied

Task: Same for `CS(=O)(=O)c1ccc(C(=O)Nc2ccc(Cl)c(-c3ccccn3)c2)c(Cl)c1`
Output: satisfied

---
Task: Reported CTG-3D luminescence at 96 h at or above 1? C[C@]12CC[C@@H]3c4ccc(O)cc4C[C@@H](CCCCCCCCC[S+]([O-])CCCC(F)(F)C(F)(F)F)[C@H]3[C@@H]1CC[C@@H]2O (some centres undefined)
Output: satisfied

Task: Same for `C/C=C1\NC(=O)[C@H]2CSSCC/C=C/[C@H](CC(=O)N[C@H](C(C)C)C(=O)N2)OC(=O)[C@H](C(C)C)NC1=O`
Output: not satisfied

Task: Same for `C[C@H](NC(=O)CCC(F)(F)F)C(=O)N[C@@H]1C(=O)N(CCO)c2ncccc2-c2ccccc21`
Output: not satisfied

Task: Same for `NC1(C(=O)N[C@@H](CCO)c2ccc(Cl)cc2)CCN(c2nc[nH]c3nccc2-3)CC1`
Output: not satisfied

Task: Same for `C[C@@H]1COCCN1c1cc(C2([S@](C)(=N)=O)CC2)nc(-c2cc[nH]c3nccc2-3)n1`
Output: satisfied

Task: Same for `O=C(/C=C/c1cccnc1)NCCCCC1CCN(C(=O)c2ccccc2)CC1`
Output: not satisfied

---

- System: HCI-002 (organoid from a triple-negative breast cancer xenograft)
- Procedure details: CTG-3D luminescence at 96 h relative to day-0 seeding control (ratio to day 0); higher = more growth / less cytotoxicity; PDxO 3D drug screen, 96 h, CTG-3D normalised to day-0 seeding control.
- Test conditions: 10 µM; days in culture: 62
# CTG-3D luminescence at 96 h per entry

Please review the following examples before continuing.
Task: CTG-3D luminescence at 96 h for `COc1cccc2c1C(=O)c1c(O)c3c(c(O)c1C2=O)C[C@@](O)(C(=O)CO)C[C@@H]3O[C@H]1C[C@H](N)[C@H](O)[C@H](C)O1` ?
Output: 0.0335

Task: Same for `C=CC(=O)N1CCC[C@@H](n2nc(-c3ccc(Oc4ccccc4)cc3)c3c(N)ncnc32)C1`
Output: 1.45

Task: Same for `O=C(O)C1(C(=O)O)CCC1.[NH2-].[NH2-].[Pt+2]`
Output: 2.29

Task: Same for `C[C@H](NC(=O)CCC(F)(F)F)C(=O)N[C@@H]1C(=O)N(CCO)c2ncccc2-c2ccccc21`
Output: 2.72

---
Task: CTG-3D luminescence at 96 h for `CCN(c1cc(C#CCN2CCOCC2)cc(C(=O)NCc2c(C)cc(C)[nH]c2=O)c1C)[C@H]1CC[C@H](N(C)CCOC)CC1` ?
Output: 3.56

Task: Same for `CC[C@H](NC(=O)[C@H](C)NC)C(=O)N1C[C@@H](O)C[C@H]1Cc1c(-c2[nH]c3cc(F)ccc3c2C[C@@H]2C[C@H](O)CN2C(=O)[C@H](CC)NC(=O)[C@H](C)NC)[nH]c2cc(F)ccc12`
Output: 0.891
